% double-positive cells vs WT for assorted binders
molecular target: T1, mTfR-1 M202A on Expi293 cells (mouse, UniProt Q62351 1-763); experiment: FACS, transfected Expi293 cells
T1 construct: whole, on cells
T1 sequence (Q62351 whole entry M202A): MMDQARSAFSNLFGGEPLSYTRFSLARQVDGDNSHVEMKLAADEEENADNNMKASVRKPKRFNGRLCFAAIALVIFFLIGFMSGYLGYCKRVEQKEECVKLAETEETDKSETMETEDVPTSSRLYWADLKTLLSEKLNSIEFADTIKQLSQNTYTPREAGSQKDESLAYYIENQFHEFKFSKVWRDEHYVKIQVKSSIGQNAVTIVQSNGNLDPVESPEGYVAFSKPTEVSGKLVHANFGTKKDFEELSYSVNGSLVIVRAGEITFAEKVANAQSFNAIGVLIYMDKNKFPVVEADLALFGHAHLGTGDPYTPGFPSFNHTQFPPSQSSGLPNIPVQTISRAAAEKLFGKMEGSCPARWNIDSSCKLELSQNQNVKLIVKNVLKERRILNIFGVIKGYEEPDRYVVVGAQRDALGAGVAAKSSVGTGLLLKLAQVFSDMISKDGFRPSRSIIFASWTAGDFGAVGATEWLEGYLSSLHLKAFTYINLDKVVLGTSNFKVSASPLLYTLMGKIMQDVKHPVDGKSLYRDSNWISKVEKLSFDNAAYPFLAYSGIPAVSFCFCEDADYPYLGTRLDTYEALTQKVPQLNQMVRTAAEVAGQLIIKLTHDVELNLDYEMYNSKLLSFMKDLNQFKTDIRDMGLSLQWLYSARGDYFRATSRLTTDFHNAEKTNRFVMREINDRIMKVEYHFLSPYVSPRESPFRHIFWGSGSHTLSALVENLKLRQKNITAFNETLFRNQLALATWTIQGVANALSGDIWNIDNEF

// known answers, use as guide
{"binder": "Clone C variant 18 VNAR-hFc (Fc fusion, not shown: a dimerising Fc or GST, also called Clone C v18; Clone C var; 18) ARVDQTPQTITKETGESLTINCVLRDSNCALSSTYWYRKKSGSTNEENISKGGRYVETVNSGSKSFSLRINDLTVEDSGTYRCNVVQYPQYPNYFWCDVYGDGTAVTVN", "% double-positive cells vs WT": "153%"}
{"binder": "Clone C variant 13 VNAR-hFc (Fc fusion, not shown: a dimerising Fc or GST, also called Clone C v13; Clone C var; 13) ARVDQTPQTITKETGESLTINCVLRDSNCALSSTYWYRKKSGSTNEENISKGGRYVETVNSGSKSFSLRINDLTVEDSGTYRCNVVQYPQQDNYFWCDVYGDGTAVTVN", "% double-positive cells vs WT": "103%"}

Bench note: what % double-positive cells vs WT did Clone C VNAR-hFc fusion (Fc fusion, not shown: a dimerising Fc or GST, bivalent VNAR-Fc; also called Clone C-hFc) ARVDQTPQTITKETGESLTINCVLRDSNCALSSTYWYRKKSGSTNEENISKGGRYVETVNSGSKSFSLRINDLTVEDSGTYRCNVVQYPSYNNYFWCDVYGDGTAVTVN show?
166%

Ok, now 8D3 antibody (anti-mouse TfR-1 control; 8D3-hFc formatted antibody) (antibody, V domains shown) VH: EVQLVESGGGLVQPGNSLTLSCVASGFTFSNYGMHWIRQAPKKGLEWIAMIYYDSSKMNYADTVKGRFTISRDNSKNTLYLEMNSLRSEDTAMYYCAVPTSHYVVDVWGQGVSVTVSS VL: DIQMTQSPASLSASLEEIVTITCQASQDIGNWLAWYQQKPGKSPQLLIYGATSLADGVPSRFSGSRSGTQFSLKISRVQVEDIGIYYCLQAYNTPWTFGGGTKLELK
81%
